- Tested on: L1210 leukemia ip in BDF1 mice, survival T/C
- Protocol details: NCI In Vivo Anticancer Drug Screen. Data for tumor model L1210 Leukemia (intraperitoneal) in B6D2F1 (BDF1) mice
- Recorded conditions: endpoint: mean survival time; dose: 25.0 mg/kg/injection; schedule: Q04DX003 (ip); vehicle: Klucel (hydroxypropylcellulose) (HPC); higher = longer survival
Inconclusive results and toxic doses are left out.
Outcome measure: T/C

Name the reported T/C value associated with the molecule CCN1CCC(CNc2cc(C)nc(/N=C(\N)Nc3cc(Cl)cc(Cl)c3)n2)C1 (stereo not given)
105 % of control

Name the reported T/C value associated with the molecule `Cn1cc(Br)c2ccccc2c1=O`
87 % of control

Name the reported T/C value associated with the molecule CC(C)C(C#N)c1ccccc1 (stereo not given)
96 % of control

Name the reported T/C value associated with the molecule `c1ccc(CC[P+](c2ccccc2)(c2ccccc2)c2ccccc2)cc1`
103 % of control

Name the reported T/C value associated with the molecule `Cl/C(=C\c1ccccc1)c1ccccc1`
96 % of control

Name the reported T/C value associated with the molecule CC(C)(C)C1CCC(OS(C)(=O)=O)C(OS(C)(=O)=O)C1 (stereo not given)
100 % of control

Name the reported T/C value associated with the molecule `Cc1nc(Cl)c(CO)c(CO)c1O`
94 % of control

Name the reported T/C value associated with the molecule `CCc1ccc(NC(=O)N(CCCl)N=O)cc1`
124 % of control

Name the reported T/C value associated with the molecule `COc1ccccc1NC(N)=S`
98 % of control

Name the reported T/C value associated with the molecule `O=[As](O)(O)CCc1ccccc1`
108 % of control

Name the reported T/C value associated with the molecule NC(=O)C(c1ccccc1)N1CCCCC1 (stereo not given)
96 % of control

Name the reported T/C value associated with the molecule `C=C=[CH][Sn]([c]1ccccc1)([c]1ccccc1)[c]1ccccc1`
106 % of control

Name the reported T/C value associated with the molecule CN(C)C(C#N)c1c[nH]c2ccccc12 (stereo not given)
97 % of control

Name the reported T/C value associated with the molecule `CC(=Nc1c2c(nc3ccccc13)CCCC2)N(C)C`
100 % of control

Name the reported T/C value associated with the molecule `CCN(CC)C(=S)SSC(=S)N(CC)CC`
93 % of control
